System: rabbits with adriamycin-induced cardiomyopathy
Experiment: Reduction of adriamycin-induced cardiac remodelling processes in the rabbit heart (heart/body weight ratio, hydroxyproline content)
Format: in vivo
Conditions: Group 2: adriamycin 1 mg/kg i.v. twice a week for 4 weeks + placebo; X ± SEM, n = 8
Parameter: Ratio of heart weights to body weight (g/kg)
Kindly answer with a numeric value in g/kg, unit omitted.

Prompt: // returns reported Ratio of heart weights to body weight for input COc1cccc2c1C(=O)c1c(O)c3c(c(O)c1C2=O)C[C@@](O)(C(=O)CO)C[C@@H]3O[C@H]1C[C@H](N)[C@H](O)[C@H](C)O1 [adriamycin, reference compound]
Completion: 3.39
